Tested on: Human umbilical vein endothelial cell (HUVEC)
Assay Explanation: vascular endothelial cell lumen formation assay (in vitro), combinational use of E7820 and anti-cancer drug
Format: cell-based
Condition Parameters: combined with E7820, fa 0.9
Where a name gives a salt, the structure may show the parent alone.
Parameter: Combined effect

Compound	Study Target	Parameter	Assay Value
CCc1c2c(nc3ccc(O)cc13)-c1cc3c(c(=O)n1C2)COC(=O)[C@]3(O)CC [SN38, 7-ethyl-10-hydro-(20)S-Camptothecin]	Human umbilical vein endothelial cell (HUVEC)	Combined effect	Synergistic
Nc1ccn([C@@H]2O[C@H](CO)[C@@H](O)C2(F)F)c(=O)n1 [Gemcitabine, hydrochloride]	Human umbilical vein endothelial cell (HUVEC)	Combined effect	Synergistic
CC(=O)O[C@H]1C(=O)[C@@]2(C)[C@H]([C@H](OC(=O)c3ccccc3)[C@]3(O)C[C@H](OC(=O)[C@H](O)[C@@H](NC(=O)c4ccccc4)c4ccccc4)C(C)=C1C3(C)C)[C@]1(OC(C)=O)CO[C@@H]1C[C@@H]2O	Human umbilical vein endothelial cell (HUVEC)	Combined effect	Synergistic
N.N.[Cl][Pt][Cl] [Cisplatin, cis-diamminedichloroplatinum II]	Human umbilical vein endothelial cell (HUVEC)	Combined effect	Synergistic
